# Read-out: Tumor necrosis factor (Homo sapiens)
# assay info: BSK_LPS_TNFa: BioMAP Diversity Plus: LPS Assay for Tumour Necrosis Factor alpha (TNFa) Biomarker Activity (AID 2283085)
# test context: primary human HUVEC with PBMC; actives raise or lower the signal
The source made the active and inactive calls. Rule for the calls: active = hit-call score of the fitted dose curve at least 0.9, where 1 is the maximum; inactive = score below 0.9.
Answer with one of the outcomes TRUE (active), FALSE (inactive)

q: State the result this test recorded for O=C(NS(=O)(=O)/C=C/c1cccs1)c1ccc(F)cc1Br .
a: FALSE

q: Input CC(=O)OCC(COC(C)=O)OC(C)=O
a: FALSE

q: Also check CCc1cc(C2=C(C(=O)O)N(c3ccccc3C(F)(F)F)S(=O)(=O)c3ccccc32)cc2c1OCO2
a: FALSE

q: Further, for COc1ccc(OC(F)(F)F)cc1CN[C@H]1CCCN[C@H]1c1ccccc1 ?
a: FALSE

q: Please give the result for CN(C)CCCN1c2ccccc2Sc2ccc(Cl)cc21 too.
a: TRUE

q: CCCCc1nc2cccnc2n1Cc1ccc(-c2ccccc2-c2nnn[nH]2)cc1 ?
a: FALSE
